- target_desc: GST-NbGlk1(82-244) (Nicotiana benthamiana)
- Chain: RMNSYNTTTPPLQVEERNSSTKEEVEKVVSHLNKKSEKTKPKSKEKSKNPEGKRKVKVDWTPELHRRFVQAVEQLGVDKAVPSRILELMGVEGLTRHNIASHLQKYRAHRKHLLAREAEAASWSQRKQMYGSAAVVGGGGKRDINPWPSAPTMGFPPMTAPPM
- assay_explanation: protein-binding microarray; NbGlk1 is a Golden2-like transcription factor of Nicotiana benthamiana; high values mean tight binding
- assay_context: protein: recombinant; tags: GST (pTH6838); dsDNA, one strand shown
The full ranking holds about 16,000 sequences; the median of “e-score” is about -0.044, and the highest 2% start at about 0.38. Many of the other results were omitted from the sample, so the highest values are more common in it than they were.
Below: a set of entries, each annotated with reported binding signal.
measurement_type: binding signal (E-score)

{"columns": ["ordered_residues", "measurement_type", "quantity_unit", "measured_value"],
 "data": [
  ["AAGATTTA", "binding signal", "E-score", 0.333],
  ["AACAATCT", "binding signal", "E-score", 0.244],
  ["ATCTCATC", "binding signal", "E-score", 0.312],
  ["AAATCGTA", "binding signal", "E-score", 0.373],
  ["ACGAATCT", "binding signal", "E-score", 0.403],
  ["CAGATTTC", "binding signal", "E-score", 0.486],
  ["ATTTCTAC", "binding signal", "E-score", 0.285],
  ["AGATATTC", "binding signal", "E-score", 0.451],
  ["AAATCGTC", "binding signal", "E-score", 0.354],
  ["AAAGATCC", "binding signal", "E-score", 0.292],
  ["AGATCTTA", "binding signal", "E-score", 0.347],
  ["ATTCCCGA", "binding signal", "E-score", 0.333],
  ["AAATACGC", "binding signal", "E-score", 0.204],
  ["AATTGCGT", "binding signal", "E-score", 0.233],
  ["ATCCGCAG", "binding signal", "E-score", 0.223],
  ["AGATCTTG", "binding signal", "E-score", 0.373],
  ["ATCCAATA", "binding signal", "E-score", 0.324],
  ["ATATATTC", "binding signal", "E-score", 0.281],
  ["AAATCATG", "binding signal", "E-score", 0.332],
  ["AGGAATCC", "binding signal", "E-score", 0.422],
  ["ACAGTATA", "binding signal", "E-score", 0.203],
  ["AAATCGTG", "binding signal", "E-score", 0.365],
  ["ATATATTA", "binding signal", "E-score", 0.229],
  ["ATATAAAA", "binding signal", "E-score", 0.212],
  ["ACGATCTA", "binding signal", "E-score", 0.252],
  ["AATCTTCT", "binding signal", "E-score", 0.41],
  ["AGATCTTC", "binding signal", "E-score", 0.428],
  ["AATCGTCT", "binding signal", "E-score", 0.277],
  ["AAATCTTG", "binding signal", "E-score", 0.421],
  ["ATTACGGC", "binding signal", "E-score", 0.278],
  ["AAATATTC", "binding signal", "E-score", 0.306],
  ["ATTCCCAA", "binding signal", "E-score", 0.344],
  ["ATCGGATA", "binding signal", "E-score", 0.33],
  ["ATTCTTCA", "binding signal", "E-score", 0.324],
  ["CAGAATCC", "binding signal", "E-score", 0.447],
  ["ACAAATAT", "binding signal", "E-score", 0.313],
  ["ATTTAAGA", "binding signal", "E-score", 0.236],
  ["CAATCTTC", "binding signal", "E-score", 0.294],
  ["AGATATTA", "binding signal", "E-score", 0.379],
  ["ATCTTTAG", "binding signal", "E-score", 0.26],
  ["ACGAATCA", "binding signal", "E-score", 0.247],
  ["AGGAATCG", "binding signal", "E-score", 0.295],
  ["ATCTGATA", "binding signal", "E-score", 0.345],
  ["AATCATCG", "binding signal", "E-score", 0.225],
  ["ACGAATCC", "binding signal", "E-score", 0.361],
  ["AAAGATCT", "binding signal", "E-score", 0.38]
]}

These measurements were taken from paper PMC5836133.
